Entries annotated with measured EDmax (dose inducing maximum positive inotropic effect)
# System: anesthetized guinea-pig
# methodSummary: inotropic effect and lethal dose in anesthetized guinea-pig (infusion over 90 minutes)
# Assay type: in vivo
# experimentalSetup: anesthetized guinea-pig, infusion over 90 min
propertyName: EDmax (dose inducing maximum positive inotropic effect) (µmol/kg)

[
  {
    "molecule": "C[C@H]1O[C@@H](O[C@H]2[C@@H](O)C[C@H](O[C@H]3[C@@H](O)C[C@H](O[C@H]4CC[C@@]5(C)[C@H](CC[C@@H]6[C@@H]5C[C@@H](O)[C@]5(C)[C@@H](C7=CC(=O)OC7)CC[C@]65O)C4)O[C@@H]3C)O[C@@H]2C)C[C@H](O)[C@@H]1O [Digoxin, digoxin]",
    "targetEntity": "anesthetized guinea-pig",
    "reportedResult": 0.65
  },
  {
    "molecule": "C[C@@H]1/C(=N/OCCN)CC[C@@]2(C)C1C(=O)C[C@@H]1[C@@H]2CC[C@]2(C)C(=O)CC[C@@H]12.Cl (stereo partly shown) [Compd. 22d]",
    "targetEntity": "anesthetized guinea-pig",
    "reportedResult": 149
  },
  {
    "molecule": "CC[C@H]1/C(=N/O[C@@H]2CCNC2)CC[C@@]2(C)C1C(=O)C[C@@H]1[C@@H]2CC[C@]2(C)C(=O)CC[C@@H]12.Cl (stereo partly shown) [I-be]",
    "targetEntity": "anesthetized guinea-pig",
    "reportedResult": 2.81
  },
  {
    "molecule": "C[C@]12C[C@@H](F)/C(=N/O[C@@H]3CCNC3)CC1CC[C@@H]1[C@@H]2CC[C@]2(C)C(=O)CC[C@@H]12.Cl (stereo partly shown) [I-bh]",
    "targetEntity": "anesthetized guinea-pig",
    "reportedResult": 14.0
  }
]

====

# targetEntity: Dog Kidney Na+, K+-ATPase (Canis lupus familiaris, UniProt P50997)
# methodSummary: Dog kidney Na+,K+-ATPase inhibition (hydrolysis of 32P-ATP)
# Type: biochemical
# experimentalSetup: dog kidney enzyme; read-out: Na+, K+-ATPase Inhibition IC50
Structures can show the parent of a compound that is named as a salt.

[
  {
    "compound": "C[C@]12CC[C@H]3[C@@H](CC=C4C5(CC5)/C(=N/O[C@@H]5CCNC5)CC[C@@]43C)[C@@H]1CC[C@@H]2O",
    "scaleUnit": "nM",
    "IC50": 1800
  },
  {
    "compound": "CC12CCC3C(CCC4C5(CCCC5)C(=NOC5CCNC5)CCC34C)C1CCC2O (stereo not shown)",
    "scaleUnit": "nM",
    "IC50": 3100
  },
  {
    "compound": "CC(C)C1=C2CC[C@H]3[C@@H]4CC[C@H](O)[C@@]4(C)CC[C@@H]3[C@@]2(C)CC/C1=N\\O[C@@H]1CCNC1 [I-bv, fumarate]",
    "scaleUnit": "nM",
    "IC50": 3900
  },
  {
    "compound": "CO/N=C1\\C[C@H]2[C@@H]3CC[C@H](O)[C@@]3(C)CC[C@@H]2[C@@]2(C)C[C@@H](F)/C(=N/O[C@@H]3CCNC3)CC12 (stereo partly shown) [I-bk, fumarate]",
    "scaleUnit": "nM",
    "IC50": 1900
  }
]

Data provenance is patent US8664210B2.
